molecular target: Steroid 17-alpha-hydroxylase/17,20 lyase (Homo sapiens, UniProt P05093); test: In vitro cytochrome P450 17A1 inhibition was assayed using the rapid acetic acid releasing assay (AARA), utilizing intact P450c17-expressing Escherichia coli or P450c17-LNCaP cells as the enzyme source.
Some molecules, each annotated with its measured IC50.
Parameter Measured: IC50

molecule="C[C@]12CC[C@H](O)CC1=CCC1C2CC[C@]2(C)C(n3ccnn3)=CCC12 (some centres undefined)" parameter_measured=IC50 value="377 nM"
molecule="C=C1C[C@@]2(C)C(=CC1=O)CCC1C2CC[C@@]2(C)C1CC[C@]2(C)OC(C)=O (some centres undefined)" parameter_measured=IC50 value="562 nM"
molecule=C[C@]12CC[C@@H](O)CC1=CC[C@@H]1[C@@H]2CC[C@]2(C)C(=C/C=N/O)CC[C@@H]12 parameter_measured=IC50 value="320 nM"
molecule=C/C(=N/O)[C@@]1(O)CC[C@H]2[C@@H]3CC=C4C[C@@H](O)CC[C@]4(C)[C@H]3CC[C@@]21C parameter_measured=IC50 value="12000 nM"

----------
Let's look at some compounds and their measured pKi.
Biological target: Steroid 17-alpha-hydroxylase/17,20 lyase (Homo sapiens, UniProt P05093)
Sequence (P05093 whole entry): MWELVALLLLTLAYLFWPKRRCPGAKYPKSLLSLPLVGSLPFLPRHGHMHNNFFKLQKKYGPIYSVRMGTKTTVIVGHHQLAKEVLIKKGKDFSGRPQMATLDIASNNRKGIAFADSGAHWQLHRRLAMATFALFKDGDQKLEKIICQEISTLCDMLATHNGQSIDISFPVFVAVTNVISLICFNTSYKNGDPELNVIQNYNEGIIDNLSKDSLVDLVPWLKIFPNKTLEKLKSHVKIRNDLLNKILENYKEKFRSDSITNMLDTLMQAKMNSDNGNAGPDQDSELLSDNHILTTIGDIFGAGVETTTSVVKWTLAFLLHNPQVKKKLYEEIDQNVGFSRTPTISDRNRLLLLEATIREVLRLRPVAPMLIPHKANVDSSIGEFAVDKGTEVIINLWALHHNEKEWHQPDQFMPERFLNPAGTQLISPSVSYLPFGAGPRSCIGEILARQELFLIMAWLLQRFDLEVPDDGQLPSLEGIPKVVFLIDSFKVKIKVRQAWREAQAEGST
pKi: −log10 of the molar value.
Parameter Measured: pKi

compound="c1ccc(-c2ccc(C(c3ccccc3)n3ccnc3)cc2)cc1 (configuration not stated) [BIFONAZOLE]" parameter_measured=pKi value=7.25
compound="Clc1ccc(C(Cn2ccnc2)OCc2ccsc2Cl)c(Cl)c1 (configuration not stated) [TIOCONAZOLE]" parameter_measured=pKi value=6.30

----------
biological target: Steroid 17-alpha-hydroxylase/17,20 lyase (Homo sapiens, UniProt P05093); assay: In vitro cytochrome P450 17A1 inhibition was assayed using the rapid acetic acid releasing assay (AARA), utilizing intact P450c17-expressing Escherichia coli or P450c17-LNCaP cells as the enzyme source.
Parameter Measured: log10(IC50) (log10 of the value in nM)

molecule="C[C@]12CCC(=O)C=C1CCC1C2CC[C@]2(C)C(n3ccnn3)=CCC12 (stereo partly specified)" measured_on="Steroid 17-alpha-hydroxylase/17,20 lyase (Homo sapiens, UniProt P05093)" value=2.59
molecule="C[C@]12CC[C@H](O)CC1=CCC1C2CC[C@]2(C)C(c3cncnc3)=CCC12 (stereo partly specified)" measured_on="Steroid 17-alpha-hydroxylase/17,20 lyase (Homo sapiens, UniProt P05093)" value=2.70
molecule="C[C@]12CC[C@H](O)CC1=CCC1C2CC[C@]2(C)C(n3cncn3)=CCC12 (stereo partly specified)" measured_on="Steroid 17-alpha-hydroxylase/17,20 lyase (Homo sapiens, UniProt P05093)" value=2.90
molecule="CCC(=O)O[C@H]1CC[C@H]2[C@@H]3CCC4=CC(=O)CC[C@]4(C)[C@H]3CC[C@]12C [TESTOSTERONE PROPIONATE]" measured_on="Steroid 17-alpha-hydroxylase/17,20 lyase (Homo sapiens, UniProt P05093)" value=1.75
molecule="C[C@]12CCC(=O)C=C1CCC1C2CC[C@]2(C)C(c3ccno3)=CCC12 (stereo partly specified)" measured_on="Steroid 17-alpha-hydroxylase/17,20 lyase (Homo sapiens, UniProt P05093)" value=3.00
molecule="C[C@]12CCC(=O)C=C1CCC1C2CC[C@]2(C)C(n3ccnc3)=CCC12 (stereo partly specified)" measured_on="Steroid 17-alpha-hydroxylase/17,20 lyase (Homo sapiens, UniProt P05093)" value=2.18
molecule="C[C@]12CC[C@H](O)CC1=CCC1C2CC[C@]2(C)C(n3ncnn3)=CCC12 (stereo partly specified)" measured_on="Steroid 17-alpha-hydroxylase/17,20 lyase (Homo sapiens, UniProt P05093)" value=3.15
molecule="C[C@]12CCC3C(CC=C4C[C@@H](O)CC[C@@]43C)C1CCC2C/C=N/O (stereo partly specified)" measured_on="Steroid 17-alpha-hydroxylase/17,20 lyase (Homo sapiens, UniProt P05093)" value=2.65
molecule="C[C@]12CCC(=O)C=C1CCC1C2CC[C@]2(C)C(n3cnc4ccccc43)=CCC12 (stereo partly specified)" measured_on="Steroid 17-alpha-hydroxylase/17,20 lyase (Homo sapiens, UniProt P05093)" value=2.96
molecule="C[C@]12CCC(=O)C=C1CCC1C2CC[C@]2(C)C(n3cncn3)=CCC12 (stereo partly specified)" measured_on="Steroid 17-alpha-hydroxylase/17,20 lyase (Homo sapiens, UniProt P05093)" value=3.08
molecule="C[C@]12CC[C@H](O)CC1=CCC1C2CC[C@]2(C)C(=N/N)/C(=N/O)CC12 (stereo partly specified)" measured_on="Steroid 17-alpha-hydroxylase/17,20 lyase (Homo sapiens, UniProt P05093)" value=3.77
